Could you please report measured Ki for the items listed next?
assay_target: Alpha glucosidase (Homo sapiens, UniProt O43451+P10253+P14410+Q2M2H8)
protocol_details: Inhibition of alpha-glucosidase (unknown origin) using PNP-G as substrate by Dixon plot analysis
Format: protein assay
Answers are plain numbers, in µM.

Report Ki for COc1c(O)cc2oc3cc(O)c(CC=C(C)C)c(O)c3c(=O)c2c1CC=C(C)C [MANGOSTIN] please.
7.3

Ki lookup needed for CC(C)=CCC/C(C)=C/Cc1c(O)c(CC=C(C)C)c(O)c2c(=O)c3cc(O)ccc3oc12 [COCHINCHINONE A] , thanks.
13.4

For the compound shown here, `CC(C)=CCC/C(C)=C/COc1cc2oc3ccc(O)cc3c(=O)c2c(O)c1CC=C(C)C` , give the reported Ki.
27.2

So what's the measured Ki for this one? C=C(C)C(O)CC/C(C)=C/COc1ccc2oc3cc(O)cc(O)c3c(=O)c2c1 (configuration not stated)
13

Query (compound): C=C(C)C(O)Cc1c(O)c(C/C=C(\C)CCC=C(C)C)c2oc3ccc(O)cc3c(=O)c2c1O (configuration not stated) ; field requested: Ki
4.2

Quick batch: Ki for everything below.
1. C=C(CCC=C(C)C)C(O)Cc1c(O)c(CC=C(C)C)c(O)c2c(=O)c3cc(O)ccc3oc12 (configuration not stated)
2. CC(C)=CCCC(C)(O)C1Cc2c(c(CC=C(C)C)c(O)c3c(=O)c4cc(O)ccc4oc23)O1 (configuration not stated)

1. 8.2
2. 9.9

// batch mode: one Ki value per listed entry
1. COc1c(O)ccc2c(=O)c3c(O)cc4c(c3oc12)C(C)(C)C(CO)O4 (configuration not stated)
2. CC(C)=CCC/C(C)=C/COc1ccc2oc3cc(O)cc(O)c3c(=O)c2c1
3. COc1c(O)cc2oc3cc(O)c(CCC(C)(C)O)c(O)c3c(=O)c2c1CC=C(C)C
4. CC(C)=CCc1c(O)cc2oc3cc(O)c(O)c(CC=C(C)C)c3c(=O)c2c1O
5. CC(C)=CCc1c(O)c(CC=C(C)C)c2oc3ccc(O)cc3c(=O)c2c1O

1: 33.9; 2: 17.7; 3: 25.1; 4: 1.4; 5: 19.2
